Experiment: Cytotoxicity against mouse RAW264.7 cells assessed as cell survival at < 32 uM after 24 hrs by MTT assay
Type: cell-based
Conditions: read-out: Activity
Where a SMILES comes first, the peptide text is derived from it.
For each record, write down the corresponding viability at 24 h.

Challenge: // query viability at 24 h value for entry CC(C)C[C@H](NC(=O)[C@H](CCCCN)NC(=O)[C@H](Cc1c[nH]c2ccccc12)NC(=O)[C@H](CCCCN)NC(=O)[C@H](CC(C)C)NC(=O)[C@H](CCCCN)NC(=O)[C@H](Cc1c[nH]c2ccccc12)NC(=O)[C@H](CCCCN)NC(=O)[C@H](CC(C)C)NC(=O)[C@H](CCCCN)NC(=O)[C@@H](N)Cc1c[nH]c2ccccc12)C(=O)N[C@@H](CCCCN)C(N)=O (H-WKLKWKLKWKLK-NH2)
Response given: > 90%

Next:
Challenge: Consider the compound shown here: N=C(N)NCCC[C@H](NC(=O)[C@H](Cc1ccccc1)NC(=O)[C@H](CCCNC(=N)N)NC(=O)[C@H](Cc1c[nH]c2ccccc12)NC(=O)[C@H](CCCNC(=N)N)NC(=O)[C@H](Cc1ccccc1)NC(=O)[C@H](CCCNC(=N)N)NC(=O)[C@H](Cc1c[nH]c2ccccc12)NC(=O)[C@H](CCCNC(=N)N)NC(=O)[C@H](Cc1ccccc1)NC(=O)[C@H](CCCNC(=N)N)NC(=O)[C@@H](N)Cc1c[nH]c2ccccc12)C(N)=O (H-WRFRWRFRWRFR-NH2) What is its recorded viability at 24 h?
Response given: > 90%

All values here come from ChEMBL document CHEMBL4311942.
